Target Or System: T1, biotinylated recombinant human IL-12Rβ2 (human, UniProt Q99665 24-622, random biotinylated)
T1 construct: Recombinant protein produced in-house, biotinylated; also called hIL-12RB2; human IL-12RB2
T1 sequence: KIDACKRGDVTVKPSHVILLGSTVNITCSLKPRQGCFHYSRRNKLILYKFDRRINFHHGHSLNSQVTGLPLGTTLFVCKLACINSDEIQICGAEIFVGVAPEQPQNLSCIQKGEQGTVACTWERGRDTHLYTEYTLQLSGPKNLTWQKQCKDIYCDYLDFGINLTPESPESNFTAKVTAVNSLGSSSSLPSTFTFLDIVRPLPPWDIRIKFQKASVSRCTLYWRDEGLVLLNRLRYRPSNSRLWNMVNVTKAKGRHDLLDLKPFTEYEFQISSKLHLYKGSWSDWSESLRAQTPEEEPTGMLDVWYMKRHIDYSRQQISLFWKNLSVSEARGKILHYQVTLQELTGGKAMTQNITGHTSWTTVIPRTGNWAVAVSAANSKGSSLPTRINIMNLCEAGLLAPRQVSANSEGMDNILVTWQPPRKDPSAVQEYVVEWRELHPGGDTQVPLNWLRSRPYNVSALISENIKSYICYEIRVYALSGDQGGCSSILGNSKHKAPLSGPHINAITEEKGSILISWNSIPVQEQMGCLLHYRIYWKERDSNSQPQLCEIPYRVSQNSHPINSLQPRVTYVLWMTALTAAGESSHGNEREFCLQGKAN
Test Details: ELISA, periplasmic extract on biotinylated hIL-12Rβ2, signal over control wells
This listing pairs binders with measured ELISA binding hIL-12RB2/control.
Report only the number, with the unit ratio understood.

INPUT: Item anti-IL-12Rβ2 VHH clone 20476 (VHH, not shown: small tags and cut ends, tested as periplasmic extract; also called 2CAM20) VHH: QVQLQESGGGSVQAGGSLRLSCAVFGLSFKDYSMSWFRQAPGKEREFVAGISSGGSWIGDITSYADSVKGRFTISRDNAKNMIYLQMNSLKPDDTGVYYCAAASYGTRYYVGSTANEYTTWGQGTQVTVSS : provide ELISA binding hIL-12RB2/control
OUTPUT: 0.956

INPUT: Item anti-IL-12Rβ2 VHH clone 20527 (VHH, not shown: small tags and cut ends, tested as periplasmic extract; also called 3CRMS90) VHH: QVQLQESGGGLVQAGGSLRLSCAASGFTLSTYAMSWVRQAPGKGLEWVSSISSSGASTNYADSVKGRFTISRDNAKNTLYLQMNSLKPEDTAVYYCAKASQNYSPPGQGTQVTVSS : provide ELISA binding hIL-12RB2/control
OUTPUT: 0.834

INPUT: Item anti-IL-12Rβ2 VHH clone 20489 (VHH, not shown: small tags and cut ends, tested as periplasmic extract; also called 2CAM50) VHH: QVQLQESGGGLVQPGGPLRLSCAPSGRTFSTLAMAWFRQAPGKEREVVATISWSGGRTYYADSVKGRFTISRDNAKNTAFLQMNSLRPDDTAVYYCAARESDYGSYDYWGQGTQVTVSS : provide ELISA binding hIL-12RB2/control
OUTPUT: 0.995

INPUT: Item anti-IL-12Rβ2 VHH clone 20469 (VHH, not shown: small tags and cut ends, tested as periplasmic extract; also called 2CAM8) VHH: QVQLQESGGGLVQPGGSLRLSCAASGRTFSSYGMGWFRQAPGKKREFVAAISRDARITDYADSVKGRFTISRDNAKNTAYLEMNSLNPEDTAVYFCAAAYTYSGSHYVTARSSDYHSWGQGTQVTVSS : provide ELISA binding hIL-12RB2/control
OUTPUT: 1.05

INPUT: Item anti-IL-12Rβ2 VHH clone 20479 (VHH, not shown: small tags and cut ends, tested as periplasmic extract; also called 2CAM33) VHH: QVQLQESGGGLVQTGGSLRLSCAASGRTFSNSVMGWFRQAPGKEREFVAALMWSAGSEFYTDSVKGRFSISGDGAKNTVYLQMNSLKAEDTAVYYCAAKNPPHRWSDIGKSPHYEYWGQGTQVTVSS : provide ELISA binding hIL-12RB2/control
OUTPUT: 1.07

INPUT: Item anti-IL-12Rβ2 VHH clone 20456 (VHH, not shown: small tags and cut ends, tested as periplasmic extract; also called 3CRM14) VHH: QVQLQESGGGLVQPGGSLTLSCTASGSIFAIDDMYWYRQAPGKQREFVAYITATNSANYLDSVNGRFTISRDNAKNSVYLQMNSLKPEDTAVYYCNAKQIVGFQIDEYWGQGTQVTVSS : provide ELISA binding hIL-12RB2/control
OUTPUT: 1.24

INPUT: Item anti-IL-12Rβ2 VHH clone 20497 (VHH, not shown: small tags and cut ends, tested as periplasmic extract; also called 2CAM72) VHH: QVQLQESGGGLVQAGDSLRLSCAASGRTFSSYGMGWFRQAPGKEREFVAAISRGARITDYADSVKGRFTISRDNAKNTAYLQMNSLNPEDTAVYFCAAAYTYSGSHYVTARSSDYHSWGQGTQVTVSS : provide ELISA binding hIL-12RB2/control
OUTPUT: 0.932

Others:
INPUT: Item anti-IL-12Rβ2 VHH clone 20493 (VHH, not shown: small tags and cut ends, tested as periplasmic extract; also called 2CAM62) VHH: QVQLQESGGGLVQAEGSLRLSCVASGRTFSSYGMGWFRQAPGKEREFVTGISSAGSWIGDITSYADSVKGRFTISRDNAKNILYLQMNSLKPEDTAVYYCAAAYHGSRYYVGSTANEYTTWGQGTQVTVSS : provide ELISA binding hIL-12RB2/control
OUTPUT: 1.05

Just for reference, patent US20260209362A1 is where these values come from.
